- assay-procedure: Antiproliferative activity against human EC9706 cells after 48 hrs by MTT assay
- Assay type: functional, cell-based
- condition: EC9706, 48 h
Each entry below lists one item and its recorded IC50 value.
Please reply with the bare figure in µM and do not write the unit itself.

Given the entry CCCCCCCCn1cc(COC[C@@H]2OC[C@H](N)[C@@H]2O)nn1 , report its measured IC50. 44.3

Given the entry CCCCCCCCCn1cc(COC[C@@H]2OC[C@H](N)[C@@H]2O)nn1 , report its measured IC50. 20.1

----------
- assay-procedure: Antiproliferative activity against human EC9706 cells after 48 hrs by MTT assay
- Assay type: functional, cell-based
- condition: EC9706, 48 h
Each entry below lists one item and its recorded IC50 value.
Please reply with the bare figure in µM and do not write the unit itself.

Consider the worked cases shown below.
query-smiles: CCCCCCCCCCCCCCn1cc(COC[C@@H]2OC[C@H](N)[C@@H]2O)nn1
IC50 / µM: 7.83

query-smiles: CCCCCCCCCCCCn1cc(COC[C@@H]2OC[C@H](N)[C@@H]2O)nn1
IC50 / µM: 16

query-smiles: CCCCCCCCCCCCCCn1cc(COC[C@@H]2OC[C@H](N)[C@H]2O)nn1
IC50 / µM: 6.68

Kindly review the next molecule as well.
Given the entry CCCCCCCCCCn1cc(COC[C@@H]2OC[C@H](N)[C@H]2O)nn1 , report its measured IC50. 43.1

----------
- assay-procedure: Antiproliferative activity against human EC9706 cells after 48 hrs by MTT assay
- Format: functional, cell-based
- condition: EC9706, 48 h
parameter: IC50 (µM)
Please reply with the bare figure in µM and do not write the unit itself.

query-smiles: CCCCCCCCCCCCCCCCn1cc(COC[C@@H]2OC[C@H](N)[C@H]2O)nn1
IC50 / µM: 6.31
//
query-smiles: CCCCCCCCCCn1cc(COC[C@@H]2OC[C@H](N)[C@@H]2O)nn1
IC50 / µM: 15.6
//
query-smiles: CCCCCCCCCCCCCCCCCCn1cc(COC[C@@H]2OC[C@H](N)[C@H]2O)nn1
IC50 / µM: 2.29

Kindly review the next compound as well.
Given the entry CCCCCCCCCCCCCCCCCCn1cc(COC[C@@H]2OC[C@H](N)[C@@H]2O)nn1 , report its measured IC50. 17.8

----------
- assay-procedure: Antiproliferative activity against human EC9706 cells after 48 hrs by MTT assay
- Assay type: functional, cell-based
- condition: EC9706, 48 h
parameter: pIC50
Entry type: numeric. Quantity: pIC50, the -log10 of concentration in molar units.

compound: CCCCCCCCCCCCCC[C@@H]1OC[C@H](N)[C@@H]1O [PACHASTRISSAMINE]
parameter: pIC50
value-measured: 5.21

Given the entry O=c1[nH]cc(F)c(=O)[nH]1 [FLUOROURACIL] , report its measured pIC50. 5.02

Given the entry CCCCCCCCCCCCn1cc(COC[C@@H]2OC[C@H](N)[C@H]2O)nn1 , report its measured pIC50. 4.03

Given the entry CCCCCCCCCCCCCCCCn1cc(COC[C@@H]2OC[C@H](N)[C@@H]2O)nn1 , report its measured pIC50. 4.70
